test system: LXRa homodimer (NR concentration 270 nM); assay: PBM binding z-score (relative to random genomic background probes); higher = stronger binding; sequences stand for … in GC…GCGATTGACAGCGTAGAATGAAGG
Lab note: anything with PBM binding z-score at or over 0.2 counts as Satisfied; the rest go in Not satisfied.

* CGAACTAGGTCACGAGGACAGTGAAGAGGTTGGA | Satisfied
* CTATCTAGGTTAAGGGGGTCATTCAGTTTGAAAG | Satisfied
* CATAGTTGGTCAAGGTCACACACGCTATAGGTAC | Satisfied
* GATAGTTGGTCAGTAAAAGGTCACACACCGGTCG | Satisfied
* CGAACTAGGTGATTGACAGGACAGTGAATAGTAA | Not satisfied
* CCTCGGAGGACACCAGGAGGTCAGAGCTGCCAGA | Satisfied
* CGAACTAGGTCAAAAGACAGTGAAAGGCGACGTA | Not satisfied
* TAGCCTAGGTCACGGGCCAGTATACCACGCGAAC | Satisfied
* CGTCAAAGTTCAACTAAGGTAACTTAAAGCACGC | Satisfied
* AGAATGAGGTTATACGTAGGTCAGGGAAGAAAGT | Satisfied
* CTATGTAGGTTAAGGGGGTCATTGAGTTTGAAAG | Satisfied
* CGAACTAGGTCAACGACAGTGAATCTCCGCACGC | Not satisfied
* AATACAGGGTCCTCGTAGGCCAGAGTACGCACAG | Not satisfied
* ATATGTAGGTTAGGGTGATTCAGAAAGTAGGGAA | Satisfied
* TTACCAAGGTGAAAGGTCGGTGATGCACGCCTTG | Not satisfied
* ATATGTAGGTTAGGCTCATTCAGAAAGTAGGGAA | Not satisfied
* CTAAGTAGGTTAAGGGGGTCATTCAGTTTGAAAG | Satisfied
* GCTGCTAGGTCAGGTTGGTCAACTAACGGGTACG | Not satisfied
* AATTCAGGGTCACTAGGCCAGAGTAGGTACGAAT | Satisfied
* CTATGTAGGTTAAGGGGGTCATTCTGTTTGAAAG | Satisfied
* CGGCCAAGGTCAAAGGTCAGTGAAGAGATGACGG | Satisfied
* CGTCCAAGGTCAATGCTAGGCCAGTGAAAGCATT | Satisfied
* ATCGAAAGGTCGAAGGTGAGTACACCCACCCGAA | Satisfied
* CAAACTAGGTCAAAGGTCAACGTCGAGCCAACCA | Satisfied
* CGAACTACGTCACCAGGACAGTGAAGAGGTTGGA | Not satisfied
* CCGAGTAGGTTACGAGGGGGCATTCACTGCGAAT | Satisfied
* CGAAGTAGGTCAAAGGACAGTGAAAGGCGACGTA | Satisfied
* ACTAGTTGTTCAGCTGAGGTCACACACAATTCGG | Satisfied
* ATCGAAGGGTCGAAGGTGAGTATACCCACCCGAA | Not satisfied
* CCGAGTAGGTTACGAGGGGGCATTAAGTGCGAAT | Satisfied
* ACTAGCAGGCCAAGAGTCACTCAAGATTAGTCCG | Not satisfied
* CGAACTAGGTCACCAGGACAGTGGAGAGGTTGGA | Not satisfied
* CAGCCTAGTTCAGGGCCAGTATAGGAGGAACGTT | Not satisfied
* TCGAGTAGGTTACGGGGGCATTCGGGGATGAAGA | Satisfied
* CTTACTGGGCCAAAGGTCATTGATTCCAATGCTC | Satisfied
* TCGAGTAGGTGACGGGGGCATTCAGGGATGAAGA | Satisfied
* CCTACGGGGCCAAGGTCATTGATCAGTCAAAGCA | Satisfied
* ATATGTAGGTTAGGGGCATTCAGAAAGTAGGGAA | Satisfied
* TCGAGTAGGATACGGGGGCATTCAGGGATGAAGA | Satisfied
* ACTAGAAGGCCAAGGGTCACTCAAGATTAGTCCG | Satisfied
* CTATGTAGGTTAAGGGGGTCTTTCAGTTTGAAAG | Satisfied
* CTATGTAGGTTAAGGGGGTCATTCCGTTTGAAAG | Satisfied
* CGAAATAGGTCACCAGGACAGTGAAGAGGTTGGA | Satisfied
* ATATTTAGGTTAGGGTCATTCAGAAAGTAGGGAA | Satisfied
* AGCGAAAGGTCGAAGGTGAGTATACCCACCCGAA | Not satisfied
* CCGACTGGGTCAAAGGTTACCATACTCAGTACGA | Satisfied
* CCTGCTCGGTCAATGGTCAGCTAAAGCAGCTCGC | Not satisfied
* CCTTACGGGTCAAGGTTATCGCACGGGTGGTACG | Satisfied
* TCGAGTAGGTTATGGGGGCATTCAGGGATGAAGA | Satisfied
* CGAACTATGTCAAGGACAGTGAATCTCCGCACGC | Not satisfied
